Reported ENDOHDL Test 1 by item:
# testTarget: murine SR-BI (Mus musculus)
# Construct: expressed in transfected cells; host or cells: ldlA-7 (LDL receptor deficient Chinese hamster ovary cells)
# Sequence (Q61009 whole entry): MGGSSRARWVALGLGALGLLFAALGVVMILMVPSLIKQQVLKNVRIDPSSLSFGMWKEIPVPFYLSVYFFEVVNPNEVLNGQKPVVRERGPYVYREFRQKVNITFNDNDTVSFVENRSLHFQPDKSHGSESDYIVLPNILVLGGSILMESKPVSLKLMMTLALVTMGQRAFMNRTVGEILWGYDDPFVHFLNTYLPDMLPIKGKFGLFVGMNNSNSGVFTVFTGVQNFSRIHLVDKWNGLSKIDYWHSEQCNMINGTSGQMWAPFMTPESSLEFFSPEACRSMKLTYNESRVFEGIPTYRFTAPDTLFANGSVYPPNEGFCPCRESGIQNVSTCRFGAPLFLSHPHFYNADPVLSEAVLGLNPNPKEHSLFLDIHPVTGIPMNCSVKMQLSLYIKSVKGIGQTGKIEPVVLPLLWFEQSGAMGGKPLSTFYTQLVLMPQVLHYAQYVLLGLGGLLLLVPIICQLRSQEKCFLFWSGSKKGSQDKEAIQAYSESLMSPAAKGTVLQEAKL
# testDescription: Uptake of DiI from DiI-HDL by ldlA[mSR-BI] cells (high throughput screen and concentration dependence)
# Type: cell-based
# conditionsUsed: Test 1
quantityName: ENDOHDL Test 1

>  <molecule>
O=S(=O)([O-])C(F)(F)F.O=[N+]([O-])c1ccc([I+]c2ccc(F)cc2)cc1 [MIT 9952-241]

>  <testTarget>
murine SR-BI (Mus musculus)

>  <observed>
0.48

$$$$
>  <molecule>
CCN(CC)CC(=O)Nc1ccc2c(c1)Nc1ccccc1CC2.Cl [MIT 9952-158]

>  <testTarget>
murine SR-BI (Mus musculus)

>  <observed>
0.42

$$$$
>  <molecule>
O=C(O)c1ccc2c(c1)C(=O)N(c1ccc(C(=O)OCC(=O)c3ccccc3)cc1)C2=O [MIT 9952-190]

>  <testTarget>
murine SR-BI (Mus musculus)

>  <observed>
1.47

$$$$
>  <molecule>
O=C(O)CSC1CCCC/C1=N\Nc1ccc([N+](=O)[O-])cc1[N+](=O)[O-] (centres unmarked) [MIT 9952-84]

>  <testTarget>
murine SR-BI (Mus musculus)

>  <observed>
0.74

$$$$
>  <molecule>
O=C1CC(N2CCOCC2)C(=O)N1c1ccc(Br)cc1 (centres unmarked) [MIT 9952-96]

>  <testTarget>
murine SR-BI (Mus musculus)

>  <observed>
1.32

$$$$
>  <molecule>
Cc1ccc(NC(=S)NC(NC(=O)c2ccccc2Cl)C(Cl)(Cl)Cl)cc1 (centres unmarked) [MIT 9952-201]

>  <testTarget>
murine SR-BI (Mus musculus)

>  <observed>
0.69

$$$$
>  <molecule>
O=[N+]([O-])c1ccc(Cl)c(/C=N/c2ccc(S(=O)(=O)c3ccc(/N=C/c4cc([N+](=O)[O-])ccc4Cl)cc3)cc2)c1 [MIT 9952-139]

>  <testTarget>
murine SR-BI (Mus musculus)

>  <observed>
1.22

$$$$
>  <molecule>
O=C1CC(N2CCOCC2)C(=O)N1c1ccc(Br)cc1 (centres unmarked) [MIT 9952-81]

>  <testTarget>
murine SR-BI (Mus musculus)

>  <observed>
1.32

$$$$
